Target: T1, human CD24 (human, UniProt P25063 27-59, heavily glycosylated, GPI-anchored (as described in the background))
T1 construct: whole, on cells; Target of all cell-based FACS assays; also called hCD24; Cluster of differentiation 24
T1 chain (looked up): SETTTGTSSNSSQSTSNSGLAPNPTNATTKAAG
Assay: FACS, MDA-MB-468 cells
Quantity name: pEC50
// scale note: pEC50 = -log10(conc_M); give the bare number

Binder	pEC50
ch56A7E3-hIgG4 (antibody, V domains shown, chimeric) VH: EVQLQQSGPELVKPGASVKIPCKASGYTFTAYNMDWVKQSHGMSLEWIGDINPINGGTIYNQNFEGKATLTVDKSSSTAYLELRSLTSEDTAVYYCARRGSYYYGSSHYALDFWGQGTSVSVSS VL: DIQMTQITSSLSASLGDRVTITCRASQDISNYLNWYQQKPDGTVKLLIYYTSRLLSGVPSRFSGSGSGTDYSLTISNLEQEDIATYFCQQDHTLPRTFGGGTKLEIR	7.73

As a next step, examine the binder that follows.
QUERY: Any idea what its pEC50 is? The binder is ch110D4G4-hIgG4 (antibody, V domains shown, chimeric; also called chAb110D4G4) VH: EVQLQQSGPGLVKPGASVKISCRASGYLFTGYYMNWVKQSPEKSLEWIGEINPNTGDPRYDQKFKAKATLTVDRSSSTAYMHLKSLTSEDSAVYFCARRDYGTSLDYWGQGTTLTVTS VL: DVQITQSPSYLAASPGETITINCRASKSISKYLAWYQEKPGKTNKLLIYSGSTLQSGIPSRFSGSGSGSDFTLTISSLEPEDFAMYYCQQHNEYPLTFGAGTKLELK
RESULT: 8.26
